system.tested: T1, purified human Factor Bb (human, UniProt P00751 260-764)
T1 construct: Bought purified protein (Complement Technologies); also called fBb; complement factor Bb
protocol.description: ELISA on coated human Factor Bb; EC50 calculated with PRISM from the curves of FIG. 1
readout.label: pEC50
pEC50 is defined as minus the log10 of a concentration measured in mol/L.

Please report the recorded pEC50 for anti-factor Bb monoclonal antibody M18 (antibody, V domains shown, Mouse monoclonal purified from hybridoma supernatant) VH: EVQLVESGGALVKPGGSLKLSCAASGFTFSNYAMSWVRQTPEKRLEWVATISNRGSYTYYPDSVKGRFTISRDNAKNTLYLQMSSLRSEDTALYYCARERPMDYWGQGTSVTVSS VL: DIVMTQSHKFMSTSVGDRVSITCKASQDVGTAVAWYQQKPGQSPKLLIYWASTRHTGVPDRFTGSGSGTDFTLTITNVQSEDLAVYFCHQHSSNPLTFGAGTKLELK . 9.47

Please report the recorded pEC50 for anti-factor Bb monoclonal antibody M17 (antibody, V domains shown, Mouse monoclonal purified from hybridoma supernatant) VH: EVQLVESGGVLVKPGGSLKLSCAASGFTFSNFAMSWVRQTPAKRLEWVATISNGGGYTYYPDSVQGRFTISRDNANNTLYLQMSSLRSEDTALYYCARIYYGSSYEDWFAYWGQGTLVTVSA VL: DIVMTPSHKFMSTSVGDRVSITCKASQDVGSAVAWYQQKPGHSPKLLIFWASTRHTGVPDRFTGSGSGTDFTLTISNVQSEDLADYFCQQYSSYPYTFGGGTRLEIK . 8.50

Please report the recorded pEC50 for anti-factor Bb monoclonal antibody M10 (antibody, V domains shown, Mouse monoclonal purified from hybridoma supernatant) VH: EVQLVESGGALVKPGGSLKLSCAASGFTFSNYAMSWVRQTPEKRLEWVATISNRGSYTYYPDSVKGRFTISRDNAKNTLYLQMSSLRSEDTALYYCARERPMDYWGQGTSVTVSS VL: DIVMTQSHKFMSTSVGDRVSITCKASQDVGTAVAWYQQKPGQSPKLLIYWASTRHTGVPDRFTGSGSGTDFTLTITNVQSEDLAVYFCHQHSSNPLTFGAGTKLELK . 9.48

Please report the recorded pEC50 for anti-factor Bb monoclonal antibody M12 (antibody, V domains shown, Mouse monoclonal purified from hybridoma supernatant) VH: EVQLQQSGPELVKPGASVKMSCKASGYSFTDYLMNWVKQSHGKSLEWIGRINPYNGDAFYNQRFKGKATLTVDKSSSTAHMELRSLTSEDSALYYCARLENDYGFTYWGQGTLVTVSA VL: DIVMTQAAFSNPVTLGTSASISCSSSKSLLHSNGITYLYWYLQRPGQSPQLLIYRMSNLASGVPDRFSGSGSGTDFTLRISRVEAEDVGVYYCAQMLERPWTFGGGTKLEIK . 9.12

Please report the recorded pEC50 for anti-factor Bb monoclonal antibody M4 (antibody, V domains shown, Mouse monoclonal purified from hybridoma supernatant; also called Factor B/Bb antibody M4) VH: EVQLQQSGPELVKPGASVKMSCKASGYSFTDYLMNWVKQSHGKSLEWIGRINPYNGDAFYNQRFKGKATLTVDKSSSTAHMELRSLTSEDSALYYCARLENDYGFTYWGQGTLVTVSA VL: DIVMTQAAFSNPVTLGTSASISCSSSKSLLHSNGITYLYWYLQRPGQSPQLLIYRMSNLASGVPDRFSGSGSGTDFTLRISRVEAEDVGVYYCAQMLERPWTFGGGTKLEIK . 9.06
